FYI, the data here is from patent US20230233569A1.

- test.target: KRAS G12S (Homo sapiens, UniProt P01116+P62937, G12S)
- Sequence (P01116 1-169 isoform P01116-2 G12S limits assumed): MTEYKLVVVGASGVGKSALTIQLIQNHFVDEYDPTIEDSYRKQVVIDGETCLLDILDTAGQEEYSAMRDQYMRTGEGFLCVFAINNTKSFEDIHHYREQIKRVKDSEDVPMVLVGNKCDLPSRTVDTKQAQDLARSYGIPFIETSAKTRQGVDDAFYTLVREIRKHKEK
- Sequence (P62937 whole entry): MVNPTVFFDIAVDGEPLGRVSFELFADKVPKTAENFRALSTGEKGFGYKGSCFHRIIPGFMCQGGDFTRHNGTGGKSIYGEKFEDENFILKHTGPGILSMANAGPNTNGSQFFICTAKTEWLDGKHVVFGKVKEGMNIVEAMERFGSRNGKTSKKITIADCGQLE
- run.description: Disruption of BRAF RBD interaction with Ras (FRET / MOA assay, with Cyclophilin A)
- Format: biochemical
- condition.info: read-out: KRAS G12S FRET data, IC50
- Excerpt: This protocol may also be executed substituting other Ras proteins or nucleotides. The purpose of this biochemical assay was to measure the ability of test compounds to facilitate ternary complex formation between a nucleotide-loaded K-Ras isoform and Cyclophilin A; the resulting ternary complex disrupts binding to a BRAF^RBD construct, inhibiting K-Ras signaling through a RAF effector. Data is reported as IC50 values. […]
pIC50: −log10 of the molar value.
As shown below, each of these molecules has a reported pIC50 value.

molecule: CCn1c(-c2cccnc2[C@H](C)OC)c2c3cc(ccc31)-c1csc(n1)C[C@H](NC(=O)[C@H](C(C)C)N(C)C(=O)N1CCN(C(=O)CO)CC1)C(=O)N1CCC[C@H](N1)C(=O)OCC(C)(C)C2 (atropisomer, axis not shown)
pIC50: 6.00 to 7.00
--
molecule: CCn1c(-c2cccnc2[C@H](C)OC)c2c3cc(ccc31)-c1cc(O)cc(c1)C[C@H](NC(=O)[C@H](C(C)C)N(C)C(=O)[C@H]1CCN[C@H]1C)C(=O)N1CCC[C@H](N1)C(=O)OCC(C)(C)C2
pIC50: 7.00 to 8.00
--
molecule: CCn1c(-c2cc(C3CCN(C)CC3)cnc2[C@H](C)OC)c2c3cc(ccc31)-c1csc(n1)C[C@H](NC(=O)[C@H](C(C)C)N(C)C(=O)N(C)C)C(=O)N1CCC[C@H](N1)C(=O)OCC(C)(C)C2 (atropisomer, axis not shown)
pIC50: 6.00 to 7.00
--
molecule: CCn1c(-c2cccnc2[C@H](C)OC)c2c3cc(ccc31)-c1cc(O)cc(c1)C[C@H](NC(=O)[C@H](C(C)C)N(C)C(=O)C1Cc3cccnc3C1)C(=O)N1CCC[C@H](N1)C(=O)OCC(C)(C)C2 (stereo partly shown)
pIC50: 7.00 to 8.00

* * *

Entries and their IC50 values follow.
- test.target: KRAS G12D (Homo sapiens, UniProt P01116+P62937, G12D)
- Sequence (P01116 1-169 isoform P01116-2 G12D limits assumed): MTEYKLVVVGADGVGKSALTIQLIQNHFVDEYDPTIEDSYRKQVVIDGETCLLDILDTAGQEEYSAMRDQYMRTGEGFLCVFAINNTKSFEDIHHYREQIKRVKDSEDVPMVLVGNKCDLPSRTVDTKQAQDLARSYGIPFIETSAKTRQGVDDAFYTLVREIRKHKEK
- Sequence (P62937 whole entry): as the sequence (P62937 whole entry) above
- run.description: Disruption of BRAF RBD interaction with Ras (FRET / MOA assay, with Cyclophilin A)
- Type: biochemical
- condition.info: read-out: KRAS G12D FRET data, IC50
value.type: IC50

compound: CCn1c(-c2cnccc2[C@H](C)OC)c2c3cc(ccc31)-c1cc(O)cc(c1)C[C@H](NC(=O)[C@H](C(C)C)N(C)C(C)=O)C(=O)N1CCC[C@H](N1)C(=O)OCC(C)(C)C2 [Example A21]
obs.value: 1 to 10 µM
--
compound: C=CC(=O)N1CC[C@H](C(=O)N(C)[C@H](C(=O)N[C@H]2Cc3nsc(n3)-c3ccc4c(c3)c(c(-c3cccnc3[C@H](C)OC)n4CC)CC(C)(C)COC(=O)[C@@H]3CCCN(N3)C2=O)C(C)C)C1 (atropisomer, axis not shown) [Example A694]
obs.value: 1 to 10 µM
--
compound: C=CC(=O)N1CC(OC[C@H](C(=O)N[C@H]2Cc3cccc(c3)-c3ccc4c(c3)c(c(-c3cccnc3[C@H](C)OC)n4CC)CC(C)(C)COC(=O)[C@@H]3CCCN(N3)C2=O)C(C)C)C1 (racemic) [Example A483]
obs.value: > 10 µM
--
compound: C=CC(=O)N1CC[C@H](C(=O)N(C)[C@H](C(=O)N[C@H]2Cc3cc(O)cc(c3)-c3ccc4c(c3)c(c(-c3cccnc3COC)n4CC)CC(C)(C)COC(=O)[C@@H]3CCCN(N3)C2=O)C2CCCC2)C1 [Example A055]
obs.value: 1 to 10 µM
